# target-or-system: Arginase-2, mitochondrial (Homo sapiens)
# Sequence (whole entry): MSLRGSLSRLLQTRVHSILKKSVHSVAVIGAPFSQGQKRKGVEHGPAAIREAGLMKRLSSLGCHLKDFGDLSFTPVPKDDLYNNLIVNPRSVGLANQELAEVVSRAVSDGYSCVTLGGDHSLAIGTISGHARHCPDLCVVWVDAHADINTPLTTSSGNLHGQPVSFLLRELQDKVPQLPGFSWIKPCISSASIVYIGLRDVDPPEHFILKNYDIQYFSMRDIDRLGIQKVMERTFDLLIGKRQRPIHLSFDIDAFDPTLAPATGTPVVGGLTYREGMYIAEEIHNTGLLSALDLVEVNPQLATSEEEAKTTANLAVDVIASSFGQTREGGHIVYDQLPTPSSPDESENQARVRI
# method-summary: in vitro enzyme assay to detect the production of urea directly proportional to the activity of Arginase II
# Assay type: functional
# Set-up: scale not given: in the data most compounds retested in dose-response had high values
# details: 33.3 µM
property-measured: Percent Effect (%)
Give just the numeric value; % need not be written.

Entry `Cn1c(CN2CCOCC2)nnc1C1CCN(C(=O)C2CCCC2)CC1` under Arginase-2, mitochondrial (Homo sapiens) had Percent Effect of 0.476

Entry CCOCC(O)CN1CCN(C(=O)CC(C)C)CC1 (stereo not drawn) under Arginase-2, mitochondrial (Homo sapiens) had Percent Effect of 0.401

Entry CC(CNc1cncc(-n2cccn2)n1)N(C)c1ccccc1 (stereo not drawn) under Arginase-2, mitochondrial (Homo sapiens) had Percent Effect of 0.712
